// data source = ChEMBL document CHEMBL3045046

Assign inhibition of growth at 1500 g/ha to each entry below.
System: Digitaria sanguinalis
assaySummary: Herbicidal activity against hairy Digitaria sanguinalis (hairy crabgrass) assessed as inhibition of herb growth at 1.5 kg/ha during preemergence treatment protocol
Assay type: functional
conditionNotes: pre-emergence, read-out: GI
One number for each entry, in %.

Hi! Can you tell me inhibition of growth at 1500 g/ha for each of these molecules?
1. CCOCCOC(=O)/C(C#N)=C(\NCc1ccc(Cl)cc1)SC
2. CCOCCOC(=O)/C(C#N)=C(\NCC1CCOC1)C(C)C (stereo not drawn)
3. CCOCCOC(=O)/C(C#N)=C(\NCc1ccc(OCC)nn1)C(C)C

1: 24.8; 2: 0; 3: 26.7

* * *

System: Digitaria sanguinalis
assaySummary: Herbicidal activity against hairy Digitaria sanguinalis (hairy crabgrass) assessed as inhibition of herb growth at 1.5 kg/ha during preemergence treatment protocol
Assay type: functional
conditionNotes: pre-emergence, read-out: GI
# class assignment by measured inhibition of growth at 1500 g/ha: low = under 3%, middle = from 3% up to 10%, high = 10% and over

Below are worked cases with known answers.
CCOCCOC(=O)/C(C#N)=C(\NCc1cnc(OC(C)C)s1)C(C)C	middle
CCOCCOC(=O)/C(C#N)=C(\NCc1cnc(OCC(F)(F)F)s1)SC	middle

Band for the recorded inhibition of growth at 1500 g/ha of CCOCCOC(=O)/C(C#N)=C(\NCc1cnc(OCC)s1)C(C)C ?
low

Band for the recorded inhibition of growth at 1500 g/ha of CCOCCOC(=O)/C(C#N)=C(\NCc1ccc(OCC(F)(F)F)nc1)SC ?
low

Band for the recorded inhibition of growth at 1500 g/ha of CCOCCOC(=O)/C(C#N)=C(\NCc1cnc(OCC)nc1)SC ?
high

Band for the recorded inhibition of growth at 1500 g/ha of CCOCCOC(=O)/C(C#N)=C(\NCc1cnc(OC)nc1)SC ?
high

Band for the recorded inhibition of growth at 1500 g/ha of CCOCCOC(=O)/C(C#N)=C(\NCc1ccc(Cl)cc1)C(C)C ?
high

* * *

Test system: Digitaria sanguinalis
assaySummary: Herbicidal activity against hairy Digitaria sanguinalis (hairy crabgrass) assessed as inhibition of herb growth at 1.5 kg/ha during postemergence treatment protocol
Assay type: functional
conditionNotes: post-emergence, read-out: GI
observable: inhibition of growth at 1500 g/ha (%)
Give bare numbers, in %.

Solved entries:
CCOCCOC(=O)/C(C#N)=C(\NCC1CCCO1)SC (stereo unspecified)	0
CCOCCOC(=O)/C(C#N)=C(\NCc1cnc(OC)nc1)C(C)C	52.2
CCOCCOC(=O)/C(C#N)=C(\NCc1ccc(Br)nc1)C(C)C	42.4
CCOCCOC(=O)/C(C#N)=C(\NCc1cnc(OCC(F)(F)F)s1)C(C)C	95.2
CCOCCOC(=O)/C(C#N)=C(\NCc1cnc(OC(C)C)s1)C(C)C	60.8

Hi! Can you tell me inhibition of growth at 1500 g/ha for each of these molecules?
1. CCOCCOC(=O)/C(C#N)=C(\NCc1ccc(Cl)nn1)C(C)C
2. CCCOc1ncc(CN/C(=C(/C#N)C(=O)OCCOCC)C(C)C)s1
3. CCOCCOC(=O)/C(C#N)=C(\NCc1ccc(N(C)C)nc1)SC
4. CCOCCOC(=O)/C(C#N)=C(\NCc1ccc(Br)nc1)SC
5. CCOCCOC(=O)/C(C#N)=C(\NCc1ccc(Cl)nn1)SC
6. CCOCCOC(=O)/C(C#N)=C(/CC)NCc1cnc(OC)nc1

1: 48; 2: 52.8; 3: 45.6; 4: 60; 5: 28.8; 6: 2.2

* * *

System: Digitaria sanguinalis
assaySummary: Herbicidal activity against hairy Digitaria sanguinalis (hairy crabgrass) assessed as inhibition of herb growth at 1.5 kg/ha during postemergence treatment protocol
Assay type: functional
conditionNotes: post-emergence, read-out: GI
observable: inhibition of growth at 1500 g/ha (%)
One number for each entry, in %.

CCOCCOC(=O)/C(C#N)=C(\NCc1cnc(OC(C)C)s1)SC	54.4
CCOCCOC(=O)/C(C#N)=C(\NCc1ccc(N2CCOCC2)nn1)SC	2.4
CCOCCOC(=O)/C(C#N)=C(\NCc1ccc(Cl)nc1)SC	89.9
CCOCCOC(=O)/C(C#N)=C(/CC)NCc1ccc(Br)nc1	95.2
CCOCCOC(=O)/C(C#N)=C(\NCc1ccc(Cl)cc1)C(C)C	46.4

Hi! Can you tell me inhibition of growth at 1500 g/ha for each of these molecules?
1. CCOCCOC(=O)/C(C#N)=C(\NCc1cnc(OCC)s1)SC
2. CCOCCOC(=O)/C(C#N)=C(\NCc1ccoc1)C(C)C
3. CCOCCOC(=O)/C(C#N)=C(\NCC1CCCO1)C(C)C (stereo unspecified)

1. 51.2
2. 0
3. 100

* * *

Tested on: Digitaria sanguinalis
assaySummary: Herbicidal activity against hairy Digitaria sanguinalis (hairy crabgrass) assessed as inhibition of herb growth at 1.5 kg/ha during postemergence treatment protocol
Assay type: functional
conditionNotes: post-emergence, read-out: GI
Kind request: treat 50% as inclusive, so inhibition of growth at 1500 g/ha at 50% or higher is y, anything lower is n.

Below are worked cases with known answers.
CCOCCOC(=O)/C(C#N)=C(\NCc1ccc(N(C)C)nc1)C(C)C	y
CCOCCOC(=O)/C(C#N)=C(\NCc1cnc(OCC(F)(F)F)s1)SC	n
CCOCCOC(=O)/C(C#N)=C(\NCc1cnc(Cl)s1)C(C)C	n
CCOCCOC(=O)/C(C#N)=C(\NCc1cnc(OCC)nc1)SC	n
CCOCCOC(=O)/C(C#N)=C(\NCc1ccc(OCC)nn1)SC	n
CCOCCOC(=O)/C(C#N)=C(\NCc1ccc(OCC)nn1)C(C)C	y

Given the entry CCOCCOC(=O)/C(C#N)=C(\NCc1ccc(N2CCOCC2)nn1)C(C)C , answer whether its inhibition of growth at 1500 g/ha meets or surpasses 50%.
n

Given the entry CCOCCOC(=O)/C(C#N)=C(\NCc1ccc(OCC(F)(F)F)nc1)SC , answer whether its inhibition of growth at 1500 g/ha meets or surpasses 50%.
y

Given the entry CCOCCOC(=O)/C(C#N)=C(\NCc1ccc(Cl)cc1)SC , answer whether its inhibition of growth at 1500 g/ha meets or surpasses 50%.
n

Given the entry CCOCCOC(=O)/C(C#N)=C(\NCc1cnc(OC)nc1)SC , answer whether its inhibition of growth at 1500 g/ha meets or surpasses 50%.
n

Given the entry CCOCCOC(=O)/C(C#N)=C(\NCC1CCOC1)C(C)C (configuration not stated) , answer whether its inhibition of growth at 1500 g/ha meets or surpasses 50%.
y

* * *

Test system: Digitaria sanguinalis
assaySummary: Herbicidal activity against hairy Digitaria sanguinalis (hairy crabgrass) assessed as inhibition of herb growth at 1.5 kg/ha during preemergence treatment protocol
Assay type: functional
conditionNotes: pre-emergence, read-out: GI
Kind request: treat 30% as inclusive, so inhibition of growth at 1500 g/ha at 30% or higher is t, anything lower is f.

Below are worked cases with known answers.
CCCOc1ncc(CN/C(=C(/C#N)C(=O)OCCOCC)C(C)C)s1	f
CCOCCOC(=O)/C(C#N)=C(\NCc1ccc(Cl)nc1)SC	f
CCOCCOC(=O)/C(C#N)=C(\NCc1ccc(Cl)nn1)C(C)C	f

Consider the record given below.
Given the entry CCOCCOC(=O)/C(C#N)=C(/CC)NCc1cnc(OC)nc1 , answer whether its inhibition of growth at 1500 g/ha meets or surpasses 30%.
t

* * *

Assign inhibition of growth at 1500 g/ha to each entry below.
Test system: Digitaria sanguinalis
assaySummary: Herbicidal activity against hairy Digitaria sanguinalis (hairy crabgrass) assessed as inhibition of herb growth at 1.5 kg/ha during preemergence treatment protocol
Assay type: functional
conditionNotes: pre-emergence, read-out: GI
One number for each entry, in %.

Solved entries:
CCOCCOC(=O)/C(C#N)=C(\NCc1ccc(Cl)nn1)SC	0
CCOCCOC(=O)/C(C#N)=C(\NCc1cnc(Br)s1)C(C)C	3
CCOCCOC(=O)/C(C#N)=C(\NCc1ccc(Br)nc1)C(C)C	16.8

Name the recorded inhibition of growth at 1500 g/ha for CCOCCOC(=O)/C(C#N)=C(\NCc1ccc(N2CCOCC2)nn1)C(C)C .
22.8

* * *

Test system: Digitaria sanguinalis
assaySummary: Herbicidal activity against hairy Digitaria sanguinalis (hairy crabgrass) assessed as inhibition of herb growth at 1.5 kg/ha during postemergence treatment protocol
Assay type: functional
conditionNotes: post-emergence, read-out: GI
Assign inhibition of growth at 1500 g/ha to each entry below.
One number for each entry, in %.

Solved entries:
CCOCCOC(=O)/C(C#N)=C(\NCc1cnc(Br)s1)C(C)C	48
CCOCCOC(=O)/C(C#N)=C(\NCc1cnc(Br)s1)SC	36

Now take the following molecule into account.
Name the recorded inhibition of growth at 1500 g/ha for CCOCCOC(=O)/C(C#N)=C(\NCc1cnc(OCC)s1)C(C)C .
51.2
